# hCRHR1 Luciferase Reporter Assay IC50 values compiled below
Target: T1, corticotropin-releasing hormone (CRH) peptide (human and mouse (same sequence), not fully specified)
T1 peptide: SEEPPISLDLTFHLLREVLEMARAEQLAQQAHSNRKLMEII
Test: cell-based or functional assay

binder: PR302064 (antibody, human IgG1, kappa, V domains shown, humanized variant of PR301777) VH: EMQLVESGGGLVKPGGSLRLSCAASGFTFSNYWMNWVRQAPGKGLEWVAEIRLKSNNYATHYAESVKGRFTISRDDSKSTVYLQMNSLKTEDTAVYYCTVGTLVYWGQGTLVTVSS VL: DIVLTQSPDSLAVSLGERATINCRASQSVSTSTYNYMHWFQQKPGQPPKLLIKFASNLESGVPDRFSGSGSGTDFTLTISSLQAEDTAVYYCQHSWEIPYTFGQGTKLEIKR
hCRHR1 Luciferase Reporter Assay IC50 (nM): 0.531
--
binder: PR302052 (antibody, human IgG1, kappa, V domains shown, humanized variant of PR301777) VH: EMQLVESGGGLVQPGGSLKLSCAASGFTFSNYWMNWVRQASGKGLEWVAEIRLKSNNYATHYAESVKGRFTISRDDSKSTVYLQMNSLKTEDTAVYYCTVGTLVYWGQGTLVTVSS VL: EIVLTQSPATLSLSPGERATLSCRASQSVSTSTYNYMHWFQQKPGQAPRLLIKFASNLESGIPARFSGSGSGTDFTLTISSLEPEDTAVYYCQHSWEIPYTFGQGTKLEIKR
hCRHR1 Luciferase Reporter Assay IC50 (nM): 2.05
--
binder: PR302043 (antibody, human IgG1, kappa, V domains shown, humanized variant of PR301777) VH: EVQLVESGGGLVQPGGSLKLSCAASGFTFSNYWMNWVRQASGKGLEWVGEIRLKSNNYATHYAESVKGRFTISRDDSKNTAYLQMNSLKTEDTAVYYCTRGTLVYWGQGTLVTVSS VL: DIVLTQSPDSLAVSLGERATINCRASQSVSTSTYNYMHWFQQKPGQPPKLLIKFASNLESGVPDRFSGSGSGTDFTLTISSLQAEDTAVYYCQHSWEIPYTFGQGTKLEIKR
hCRHR1 Luciferase Reporter Assay IC50 (nM): 3.87
--
binder: PR004290 (antibody, human IgG1, kappa, V domains shown, Series 1; human IgG1 wildtype Fc; also called Hybridoma Clone 28b3) VH: EVQLVESGGVLVQPGGSLRLSCAASGFTFSSYWMTWVRQAPGKGLEWVANIKQDGSEKYYVDSVKGRFTISRDNAKNSLFLQMNSLRAEDTAVYYCARTLIFDYWGQGTLVTVSS VL: DIVMTQSPLSLPVTPGEPASISCRSSQSLLHSTGYNSLEWYLQKPGQSPQLLIYLGSNRASGVPDRFSGSGSGTDFTLKISRVEAEDVGIYYCMQTLQTPITFGQGTRLEIKR
hCRHR1 Luciferase Reporter Assay IC50 (nM): 5.41
--
binder: PR302066 (antibody, human IgG1, kappa, V domains shown, humanized variant of PR301777) VH: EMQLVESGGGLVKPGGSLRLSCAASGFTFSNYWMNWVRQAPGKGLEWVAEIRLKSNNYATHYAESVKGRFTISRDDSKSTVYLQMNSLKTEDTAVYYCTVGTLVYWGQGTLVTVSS VL: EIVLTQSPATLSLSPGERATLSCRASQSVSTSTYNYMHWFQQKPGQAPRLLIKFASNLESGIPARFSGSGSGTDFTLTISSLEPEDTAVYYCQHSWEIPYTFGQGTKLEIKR
hCRHR1 Luciferase Reporter Assay IC50 (nM): 2.49
